The measured values listed here are drawn from the supplement of paper PMC10065799.

I'd be grateful if you could share measured phosphorylation enrichment for these entries.
molecular target: MERTK (UniProt Q12866); experiment: phosphorylation enrichment, bacterial display (enrichment ratio); higher = better substrate or ligand; peptides without Tyr show the background;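 note: 11-residue human phosphosite peptides and single-mutation variants displayed on the E. coli surface, counted by deep sequencing, each peptide's frequency after selection divided by its frequency in the unselected input library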;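 note: frequency after pTyr selection over input frequency; kinase dosed for 20-30% of maximal phosphorylation in three min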
Sequence (Q12866 whole entry, looked up): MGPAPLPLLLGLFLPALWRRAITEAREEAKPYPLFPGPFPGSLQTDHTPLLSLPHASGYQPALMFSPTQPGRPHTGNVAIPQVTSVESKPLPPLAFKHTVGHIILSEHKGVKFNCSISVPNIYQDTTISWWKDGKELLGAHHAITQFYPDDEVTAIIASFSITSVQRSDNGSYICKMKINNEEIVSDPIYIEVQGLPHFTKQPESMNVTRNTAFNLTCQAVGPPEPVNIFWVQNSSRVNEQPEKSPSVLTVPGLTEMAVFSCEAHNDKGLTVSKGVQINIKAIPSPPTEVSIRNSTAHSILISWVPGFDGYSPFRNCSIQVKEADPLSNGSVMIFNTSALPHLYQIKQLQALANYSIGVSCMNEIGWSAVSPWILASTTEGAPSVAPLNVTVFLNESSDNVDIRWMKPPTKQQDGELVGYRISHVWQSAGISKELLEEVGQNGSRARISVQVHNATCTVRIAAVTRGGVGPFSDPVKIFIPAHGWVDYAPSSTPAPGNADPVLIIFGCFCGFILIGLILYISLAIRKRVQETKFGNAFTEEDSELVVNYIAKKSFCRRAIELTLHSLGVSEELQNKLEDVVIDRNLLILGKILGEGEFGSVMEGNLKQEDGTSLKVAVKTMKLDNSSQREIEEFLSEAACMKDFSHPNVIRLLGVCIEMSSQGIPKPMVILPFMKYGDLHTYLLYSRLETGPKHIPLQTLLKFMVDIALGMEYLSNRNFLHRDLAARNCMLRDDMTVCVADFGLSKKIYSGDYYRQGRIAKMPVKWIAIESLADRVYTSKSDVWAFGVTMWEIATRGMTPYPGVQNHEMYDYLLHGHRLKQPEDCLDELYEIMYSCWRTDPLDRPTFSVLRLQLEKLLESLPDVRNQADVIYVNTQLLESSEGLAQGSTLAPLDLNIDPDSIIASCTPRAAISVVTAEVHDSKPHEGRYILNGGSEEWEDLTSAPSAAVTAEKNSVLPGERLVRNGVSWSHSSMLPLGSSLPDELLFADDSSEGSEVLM
No unit in the answer, only the number.

Need phosphorylation enrichment of FGGLRCGFGVL [KRTAP20-2_Y13_Y13C_YF] , thanks.
0.34

CKLCQYYLDHL [ATRX_Y1849_Y1847C] , same question.
0.419

VDTGVYAVPPP [BCAR1_Y410_S407T] , same question.
9.22

DRLASYLDKVR [KRT10_Y160] , same question.
0.379

RGNKEYKEEKR [LENG1_Y96_E97K] , same question.
0.392

LQEQNYLAVDS [FAM114A1_Y115] , same question.
1.17

SHLSAFPALEG [CD5_Y465_Y465F] , same question.
0.347

GEEIKDMLWLS [OTC_Y55_Y55D] , same question.
0.425

RKRQFYLYKGK [RSPO4_Y112_C107R] , same question.
0.602

AHAGEYGAGAL [HBA1_Y25_E28G] , same question.
0.395

FLQEIYNSNNQ [FGG_Y140_YF] , same question.
0.514

DAICFYRMENA [NPHS2_Y195_YF] , same question.
0.482

SHKELYKWFTS [DYNC1H1_Y3051_E3048K] , same question.
0.66

DKATEYIQFMR [MAX_Y70_YF] , same question.
0.439

----------
molecular target: EPHB1 (UniProt P54762); assay: phosphorylation enrichment, bacterial display (enrichment ratio); higher = better substrate or ligand; peptides without Tyr show the background
Sequence (P54762 whole entry, looked up): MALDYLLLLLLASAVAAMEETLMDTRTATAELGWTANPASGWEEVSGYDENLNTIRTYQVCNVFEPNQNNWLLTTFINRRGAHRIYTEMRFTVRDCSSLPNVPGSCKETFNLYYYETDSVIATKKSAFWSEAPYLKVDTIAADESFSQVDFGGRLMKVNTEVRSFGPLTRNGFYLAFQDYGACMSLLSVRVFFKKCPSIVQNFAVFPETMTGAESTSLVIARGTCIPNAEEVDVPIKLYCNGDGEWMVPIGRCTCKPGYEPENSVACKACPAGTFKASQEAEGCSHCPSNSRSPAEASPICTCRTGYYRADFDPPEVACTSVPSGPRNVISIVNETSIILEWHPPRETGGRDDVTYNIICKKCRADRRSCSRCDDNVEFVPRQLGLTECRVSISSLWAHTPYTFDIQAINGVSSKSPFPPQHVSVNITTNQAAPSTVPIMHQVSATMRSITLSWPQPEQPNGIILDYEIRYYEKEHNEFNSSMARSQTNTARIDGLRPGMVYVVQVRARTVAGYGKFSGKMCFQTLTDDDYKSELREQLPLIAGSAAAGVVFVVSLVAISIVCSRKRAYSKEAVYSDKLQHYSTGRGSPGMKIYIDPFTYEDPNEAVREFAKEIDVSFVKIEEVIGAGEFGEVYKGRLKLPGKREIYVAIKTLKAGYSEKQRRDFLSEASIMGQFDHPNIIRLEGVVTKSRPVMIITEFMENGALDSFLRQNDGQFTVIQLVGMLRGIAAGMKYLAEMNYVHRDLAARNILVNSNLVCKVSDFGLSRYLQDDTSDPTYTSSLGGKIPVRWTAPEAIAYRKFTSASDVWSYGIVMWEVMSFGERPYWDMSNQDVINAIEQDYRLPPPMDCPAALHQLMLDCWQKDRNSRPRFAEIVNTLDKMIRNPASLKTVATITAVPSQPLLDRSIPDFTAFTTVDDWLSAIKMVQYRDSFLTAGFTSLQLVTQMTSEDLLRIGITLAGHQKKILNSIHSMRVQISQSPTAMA
I'd be grateful if you could share measured phosphorylation enrichment for these entries.
No unit in the answer, only the number.

Need phosphorylation enrichment of RNGDRYFKEIV [DCX_Y64_G67E] , thanks.
0.55

PPPPAYDDMAQ [TNK2_Y635_V638M] , same question.
0.441

SVTCTYCPALN [TP53_Y126_S127C] , same question.
0.38

EVEPTYVVLFD [ERCC4_Y577_R576T_YF] , same question.
11.1

VMAVAYRLAEQ [HK1_Y461_T457M] , same question.
0.619

GLRQGYFVEAQ [APCS_Y142] , same question.
0.526

LFIDSYEKDVA [PGM1_Y521_YF] , same question.
1.34

EALSLYTKLMN [STAM_Y371] , same question.
0.615

FEPDAYDDLDQ [ELP5_Y302_YF] , same question.
0.624

PYAEPYADYGG [APBA1_Y187_S184A] , same question.
1.16

TLNVRYESVQA [CEACAM7_Y236] , same question.
0.44

RAYRRYLLKQK [SCN2A_Y1919] , same question.
0.353

GAVGNYSGGLA [MGMT_Y158] , same question.
0.554

LFMGDYVGRGF [PPP2CA_Y86_D88G_YF] , same question.
2.4

QKTGDYYDLYG [PTPN11_Y62_N58K] , same question.
11

RQNQEYEILLD [KRT39_Y379] , same question.
1.35

VRFMAYTDETF [F8_Y450] , same question.
0.657

RELGEYPLAEF [ALDH1A3_Y492_A493P_YF] , same question.
0.511

SSVPDYLAAVD [GLB1_Y154_D151V] , same question.
0.631

RHTRSYDYMEG [FGF7_Y56] , same question.
0.534

LFCLHYFHRTF [SRD5A2_Y91_V89L] , same question.
0.9

RNIQQYNSFVS [PRKAR1A_Y373] , same question.
0.391

FGRTFYNQAIM [MCCC2_Y196] , same question.
0.476

WQQQSYLGSGI [CTNNB1_Y30_D32G] , same question.
0.362

LKEIRYPPYTD [ALDH3B2_Y362_H361R] , same question.
0.348

EILLSYPRTGF [TGM1_Y365_L366P_YF] , same question.
0.562

GDFFCYLAEVA [YWHAG_Y133_R132C_YF] , same question.
0.863

KFACSYTPVKA [FLNB_Y708_T703K_YF] , same question.
0.521

LLDGEYFTLQI [TP53_Y327_P322L] , same question.
1.95

----------
molecular target: MERTK (UniProt Q12866); test: phosphorylation enrichment, bacterial display (enrichment ratio); higher = better substrate or ligand; peptides without Tyr show the background
I'd be grateful if you could share measured phosphorylation enrichment for these entries.
No unit in the answer, only the number.

What value of phosphorylation enrichment on MERTK (UniProt Q12866) does TDGIAYEFRVI have?
0.495

TGYRPYVCPFD [YY1_Y383_D380Y] , same question.
0.551

AFSLKYEQQTQ [SYTL4_Y366] , same question.
0.491

DFEGLYQEGGG [TMEM159_Y159_E154D] , same question.
0.453

RSPLRYISILT [OR51B6_Y130_T131I] , same question.
0.376

AKYLGYPPPEI [KDR_Y357] , same question.
0.378

PFSNPYENSLI [EPOR_Y489_YF] , same question.
0.675

SLEKSYELLDG [ACTB_Y240_P243L] , same question.
0.555

TDTAAYEERLR [SPTB_Y474_V478L] , same question.
0.482

PAIERYVVVCK [RHO_Y136_L131P] , same question.
0.374

PQGVGYPPQPQ [EP300_Y2219_Q2223P] , same question.
0.74

GEEIKYMLWLS [OTC_Y55] , same question.
0.703

SGTFQYIIAKF [FOXL2_Y83_I80T_YF] , same question.
0.393

FSTDFYRVGGH [NTRK2_Y707_YF] , same question.
0.429

TTPGPYRSIFF [MPG_Y71_YF] , same question.
0.663

RPDSPYSRPHD [DOK2_Y271] , same question.
0.369

DTQNSYGCATS [TSC1_Y304] , same question.
0.393

SSQILYKLEQS [THADA_Y701_V699I] , same question.
0.466

RDHYGYRQSVT [CD55_Y245] , same question.
0.774

ARTNEYKIIRS [INA_Y87_T92S] , same question.
0.407

PYAEPYADYGG [APBA1_Y187_S184A] , same question.
0.853

TLNVRYESVQA [CEACAM7_Y236] , same question.
0.371

EEKSCYILHSS [PATJ_Y783_E780K] , same question.
0.449

KGLMPYGQPRP [SRRT_Y798_Q793K] , same question.
0.527

AVAFLYYKSIG [ADGRL4_Y301_V300L] , same question.
0.469

FIGRIYLFLTK [GARS1_Y414_YF] , same question.
0.586

MSRNLYSGDCY [DDR2_Y736_Y740C] , same question.
4.75

AEEEIYGEFEA [Src_opt_1995] , same question.
0.58

AARVSYWLASG [DCHS1_Y1582_R1583W] , same question.
0.443

LEDEVCAQKMK [TPM2_Y261_Y261C] , same question.
0.848

AESPEYVHMFT [FAM111A_Y511_YF] , same question.
0.407

PSAEGYQDVRD [ABLIM1_Y439] , same question.
0.348

GAEIVYKSPVV [MAPT_Y711] , same question.
0.558

LDPIQYSKHPP [SQSTM1_Y433_T430P] , same question.
0.384

KLSFSYGRALQ [ALDOB_Y302] , same question.
0.407

EFFDGYWGFSV [ITGA2B_Y265_YF] , same question.
1.14

NACGLYHKMNG [GATA5_Y216] , same question.
0.624

GLRQGYFVEAQ [APCS_Y142] , same question.
0.36

WNDPDYMDSRR [GAA_Y407_L405P] , same question.
0.351

DAANNYARGHF [TUBA3E_Y103_S101N_YF] , same question.
0.544

RQGQAYRGQRV [TSHR_Y706_A703G] , same question.
0.454

ADNSAYLMGLN [MYH7_Y386_K383N] , same question.
0.473

INASGYRVGPA [ACSM1_Y477_I479V] , same question.
0.49

FTGDIYSNSNL [LZTR1_Y141_YF] , same question.
1.1

CTTIHFNYMCN [TP53_Y234_Y234F] , same question.
0.397

GHLYAYDWIRI [BEST1_Y227_S231R] , same question.
9.27

EALSLYTKLMN [STAM_Y371] , same question.
0.411

AFAEVYEGQVS [ALK_Y1131_G1128A] , same question.
0.484

QYQLKYSETPF [SIX6OS1_Y129] , same question.
0.838

HGAKVYIDPFT [EPHB4_Y590_T587A] , same question.
0.535

DPHECYAKVFD [ALB_Y394] , same question.
0.42

KPLMPCMRYSR [SMARCE1_Y73_Y73C] , same question.
0.538

PLGVPYLDKPP [JMJD7_Y31_A28G] , same question.
0.942

SVVVLYEPPEV [TP53_Y220_P219L] , same question.
3.56

WRPFGYPRRRR [BCS1L_Y181] , same question.
0.487

AHPIIYTIIEA [PYKtide_no-pT_2014] , same question.
7.03

PGVDIYISPNM [PADI3_Y51] , same question.
0.534

AHAGEHGAEAL [HBA1_Y25_Y25H] , same question.
0.382
